- TEST TARGET: SdiA (Salmonella enterica subsp. enterica serovar Typhimurium)
- Sequence (O66040 entry or part of it): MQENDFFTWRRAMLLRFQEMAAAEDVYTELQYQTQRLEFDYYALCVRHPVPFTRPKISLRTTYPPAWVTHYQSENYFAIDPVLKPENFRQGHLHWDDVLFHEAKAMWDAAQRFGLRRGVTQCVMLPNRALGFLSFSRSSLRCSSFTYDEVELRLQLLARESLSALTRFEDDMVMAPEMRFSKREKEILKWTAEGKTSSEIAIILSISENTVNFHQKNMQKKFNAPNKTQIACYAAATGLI
- METHOD: S. Typhimurium-pJNS25 SdiA reporter, competitive antagonism against 10 nM L-OOHL
- Assay type: cell-based
- ASSAY SETUP: 100 μM compound; average ± STD, change in activity from 10 nM 2 (OOHL)
Listed compounds paired with reported Antagonism 100 μM Inhibition (%)

In the examples that follow, each entry is paired with its recorded Antagonism 100 μM Inhibition (%).
## Task Sample O=C(Cc1ccc(Cl)cc1)N[C@H]1CCOC1=O [C5] — what was its Antagonism 100 μM Inhibition (%)?
## Result 18 ± 7%

## Task Sample O=C(CCCOc1ccc(Cl)cc1)N[C@H]1CCOC1=O [compound 10, reference compound] — what was its Antagonism 100 μM Inhibition (%)?
## Result 5 ± 15%

## Task Sample Cc1nc(-c2ccccc2)oc1CC(=O)N[C@H]1CCOC1=O [D4] — what was its Antagonism 100 μM Inhibition (%)?
## Result -6 ± 4%

More entries:
## Task Sample O=C(CCc1cccs1)N[C@H]1CCOC1=O [D3] — what was its Antagonism 100 μM Inhibition (%)?
## Result 6 ± 9%

## Task Sample O=C(CCc1ccc(Br)cc1)N[C@H]1CCOC1=O [compound 8, reference compound] — what was its Antagonism 100 μM Inhibition (%)?
## Result 4 ± 3%

## Task Sample CC(C)(C)OC(=O)Nc1ccc(C(=O)N[C@H]2CCOC2=O)cc1 [Q13] — what was its Antagonism 100 μM Inhibition (%)?
## Result -14 ± 2%

## Task Sample O=C(Cc1ccc(Br)cc1)N[C@H]1CCSC1=O [F10] — what was its Antagonism 100 μM Inhibition (%)?
## Result -3 ± 7%

## Task Sample Nc1ccc(CC(=O)N[C@H]2CCOC2=O)cc1 [C21] — what was its Antagonism 100 μM Inhibition (%)?
## Result 13 ± 4%

## Task Sample O=C(CCc1cccc([N+](=O)[O-])c1)N[C@H]1CCOC1=O [E38] — what was its Antagonism 100 μM Inhibition (%)?
## Result 32 ± 6%

====

- TEST TARGET: UniProt O66040
- METHOD: S. Typhimurium-pJNS25 SdiA reporter, competitive antagonism against 10 nM L-OOHL
- Type: cell-based
- ASSAY SETUP: 100 μM compound; average ± STD, change in activity from 10 nM 2 (OOHL)
Listed compounds paired with reported Antagonism 100 μM Inhibition (%)
Provide the reading as a plain figure in %.

In the examples that follow, each entry is paired with its recorded Antagonism 100 μM Inhibition (%).
## Task Sample COc1ccc(C(=O)N[C@H]2CCOC2=O)cc1 — what was its Antagonism 100 μM Inhibition (%)?
## Result -6

## Task Sample CCCCCCCCCCCCCC(=O)N[C@H]1CCOC1=O — what was its Antagonism 100 μM Inhibition (%)?
## Result 0

## Task Sample CCCCCOc1ccc(C(=O)N[C@H]2CCOC2=O)cc1 — what was its Antagonism 100 μM Inhibition (%)?
## Result -1

## Task Sample O=C(NCc1cc(Br)cc(Br)c1OC(=O)c1ccccc1[N+](=O)[O-])c1ccccc1Cl [19P, reference compound] — what was its Antagonism 100 μM Inhibition (%)?
## Result 25

More entries:
## Task Sample O=C(CC(O)Cc1cccc(I)c1)N[C@H]1CCOC1=O (stereo partly drawn) — what was its Antagonism 100 μM Inhibition (%)?
## Result 19

## Task Sample O=C(COc1cccc([N+](=O)[O-])c1)N[C@H]1CCOC1=O — what was its Antagonism 100 μM Inhibition (%)?
## Result 9
